The measurements presented in this section are drawn from patent US9662357B2.

# Test system: Bacterium LMB64
# assay-explanation: Antibiotic sensitivity of bacterium LMB64, zone of inhibition
# Format: cell-based
# experimental-setup: LB ⅕ dilution medium; disc load given with each antibiotic
measurement-name: Zone of inhibition diameter (mm) LB ⅕
State just the number; it will be interpreted in mm.

- CN[C@H](CC(C)C)C(=O)N[C@H]1C(=O)N[C@@H](CC(N)=O)C(=O)N[C@H]2C(=O)N[C@H]3C(=O)N[C@H](C(=O)N[C@H](C(=O)O)c4cc(O)cc(O)c4-c4cc3ccc4O)[C@H](O)c3ccc(c(Cl)c3)Oc3cc2cc(c3O[C@@H]2O[C@H](CO)[C@@H](O)[C@H](O)[C@H]2O[C@H]2C[C@](C)(N)[C@H](O)[C@H](C)O2)Oc2ccc(cc2Cl)[C@H]1O: 21
- CN(C)[C@@H]1C(O)=C(C(N)=O)C(=O)[C@@]2(O)C(O)=C3C(=O)c4c(O)cccc4[C@@](C)(O)[C@H]3C[C@@H]12: 20
- NC[C@H]1O[C@H](O[C@H]2[C@H](O)[C@@H](O[C@H]3O[C@H](CO)[C@@H](O)[C@H](N)[C@H]3O)[C@H](N)C[C@@H]2N)[C@H](O)[C@@H](O)[C@@H]1O: 27

// query Zone of inhibition diameter (mm) LB ⅕ value for entry O=C(N[C@H](CO)[C@H](O)c1ccc([N+](=O)[O-])cc1)C(Cl)Cl
24

Also check CC1(C)S[C@@H]2[C@H](NC(=O)[C@H](N)c3ccccc3)C(=O)N2[C@H]1C(=O)O
29

* * *

# System: Bacterium LMB64
# assay-explanation: Antibiotic sensitivity of bacterium LMB64, zone of inhibition
# Assay type: cell-based
# experimental-setup: LB ½ dilution medium; disc load given with each antibiotic
Each record here notes measured Zone of inhibition diameter (mm) LB ½.
Use mm as the unit, but write only the number.

Use these answered entries as a reference point.
- CN[C@H](CC(C)C)C(=O)N[C@H]1C(=O)N[C@@H](CC(N)=O)C(=O)N[C@H]2C(=O)N[C@H]3C(=O)N[C@H](C(=O)N[C@H](C(=O)O)c4cc(O)cc(O)c4-c4cc3ccc4O)[C@H](O)c3ccc(c(Cl)c3)Oc3cc2cc(c3O[C@@H]2O[C@H](CO)[C@@H](O)[C@H](O)[C@H]2O[C@H]2C[C@](C)(N)[C@H](O)[C@H](C)O2)Oc2ccc(cc2Cl)[C@H]1O [Vancomycin]: 21
- CO[C@H]1/C=C/O[C@@]2(C)Oc3c(C)c(O)c4c(O)c(c(/C=N/N5CCN(C)CC5)c(O)c4c3C2=O)NC(=O)/C(C)=C\C=C\[C@H](C)[C@H](O)[C@@H](C)[C@@H](O)[C@@H](C)[C@H](OC(C)=O)[C@@H]1C [Rifampicin]: 19
- CC1(C)S[C@@H]2[C@H](NC(=O)[C@H](N)c3ccccc3)C(=O)N2[C@H]1C(=O)O [Ampicillin]: 28
- [H]/N=C(/N)N[C@H]1[C@H](O)[C@@H](O)[C@H](O[C@@H]2O[C@@H](C)[C@](O)(C=O)[C@H]2O[C@@H]2O[C@@H](CO)[C@H](O)[C@@H](O)[C@@H]2NC)[C@@H](N/C(N)=N\[H])[C@@H]1O [Streptomycin]: 25

Report Zone of inhibition diameter (mm) LB ½ for NC[C@H]1O[C@H](O[C@H]2[C@H](O)[C@@H](O[C@H]3O[C@H](CO)[C@@H](O)[C@H](N)[C@H]3O)[C@H](N)C[C@@H]2N)[C@H](O)[C@@H](O)[C@@H]1O [Kanamycin] please.
30

Could you do the same for CN(C)[C@@H]1C(O)=C(C(N)=O)C(=O)[C@@]2(O)C(O)=C3C(=O)c4c(O)cccc4[C@@](C)(O)[C@H]3C[C@@H]12 [Tetracycline] , please?
25

Now consider O=C(N[C@H](CO)[C@H](O)c1ccc([N+](=O)[O-])cc1)C(Cl)Cl [Chloramphenicol] .
26
